All values here come from the NIST ThermoML archive (doi:10.1016/j.tca.2012.07.004).

Item-by-item account of mass density
Settings: 298.15 K; 101 kPa; Liquid; Vibrating tube method
reported property: mass density (kg/m3)

compound="C[NH+](C)C.O=S(=O)([O-])O [trimethylammonium hydrogen sulfate]" numeric_value=1467.58
compound="CCN(CC)CC.O=P(O)(O)O [triethylammonium dihydrogen phosphate]" numeric_value=1125.7
compound="C[NH+](C)C.O=P([O-])(O)O [trimethylammonium dihydrogen phosphate]" numeric_value=1353.61
compound="CC(=O)[O-].C[NH+](C)C [trimethylammonium acetate]" numeric_value=1053.85
compound=CN1CCCC1=O numeric_value=1025.9

* * *

Item-by-item account of mass density
Settings: 308.15 K; 101 kPa; Liquid; Vibrating tube method
reported property: mass density (kg/m3)

compound="C[NH+](C)C.O=P([O-])(O)O [trimethylammonium dihydrogen phosphate]" unit_text=kg/m3 numeric_value=1347.59
compound="CC(=O)[O-].C[NH+](C)C [trimethylammonium acetate]" unit_text=kg/m3 numeric_value=1045.81
compound=CN1CCCC1=O unit_text=kg/m3 numeric_value=1019.25
compound="CCN(CC)CC.O=P(O)(O)O [triethylammonium dihydrogen phosphate]" unit_text=kg/m3 numeric_value=1123.71
compound="C[NH+](C)C.O=S(=O)([O-])O [trimethylammonium hydrogen sulfate]" unit_text=kg/m3 numeric_value=1463.5
